Source listed as the supplement of paper PMC10567573.

B1: SCNN1D (parent)
chain: FYRLYQDLETHRLPCTSRCPRPCR

# Variants of: B1
# test: protein stability index of a GFP-peptide fusion (GPS, HEK-293T) (PSI 1-6); higher = more stable;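 further: lentivirally expressed fusions sorted by FACS into six bins by GFP to DsRed ratio, PSI derived from sequencing read proportions per bin multiplied by bin number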
# conditions: c terminus: a fixed tail appended
measured-quantity: protein stability index
# print the numeric value only

[
  {
    "residue-string": "FIRLYQDLETHRLPCTSRCPRPCR",
    "protein stability index": 2.27
  },
  {
    "residue-string": "FYRLYQDIETHRLPCTSRCPRPCR",
    "protein stability index": 2.41
  },
  {
    "residue-string": "FSRLYQDLETHRLPCTSRCPRPCR",
    "protein stability index": 2.49
  },
  {
    "residue-string": "FYRLYQDLETHRLPYTSRCPRPCR",
    "protein stability index": 1.8
  },
  {
    "residue-string": "FYRLNQDLETHRLPCTSRCPRPCR",
    "protein stability index": 3.29
  },
  {
    "residue-string": "FYRLYQDLETHRLPCTSRCPRGCR",
    "protein stability index": 2.15
  }
]

Data request: Name the recorded protein stability index for FYRLYQDLETHRLPCASRCPRPCR .
Data returned: 1.98

Data request: Then FYRLYQDLETHRLPCTSRCPRPCI ?
Data returned: 1.65

Data request: Then FYRLYQDLETHRLPCTSRCPRWCR ?
Data returned: 1.13

Data request: Then FYRLYQDLETHRLPCTSCCPRPCR ?
Data returned: 1.51

Data request: Then FYRLYQDLDTHRLPCTSRCPRPCR ?
Data returned: 2.99
